From: ChEMBL document CHEMBL1201862

- Test system: LOX IMVI
- PROTOCOL DESCRIPTION: NCI tumour cell line growth inhibition, 48 h
Activity calls are given as the source filed them. Cut-off read from the data, not from the text of the source: active = GI50 up to about 1.1 µM and inactive = higher. Peptide text beside a SMILES is read from it. * marks the point of attachment. Boc = CC(C)(C)OC(=O)*
Task for the reader: assign each of the following compounds its reported GI50.

Below are worked cases with known answers.
[[record]]
compound = "COC(=O)C(Cc1c[nH]c2ccccc12)NC(=O)C(Cc1c[nH]c2ccccc12)NC(=O)C(Cc1c[nH]c2ccccc12)NC(=O)C(Cc1c[nH]c2ccccc12)NC(=O)C(Cc1c[nH]c2ccccc12)NC(=O)OC(C)(C)C (stereo not drawn) (Boc-WWWWW-OMe; configuration not given here)"
quantity_name = "GI50"
reported_value = "67.6 µM (inactive)"

[[record]]
compound = "CCOc1ccc(/N=C\\c2cc(OC)c(OC)c(OC)c2)cc1"
quantity_name = "GI50"
reported_value = "> 100 µM (inactive)"


State recorded GI50 for all listed compounds.
1. NC(CCP(=O)(O)O)C(=O)O (stereo not drawn)
2. Cc1cc(C)c(-n2c(C)c(C)c(C#N)c2N)c(C)c1
3. Cn1c2ccccc2c2[nH]cc3nc4ccccc4c-3c21

Completion:
> 100 µM (inactive)
19.2 µM (inactive)
21.3 µM (inactive)

State recorded GI50 for all listed compounds.
1. CCC/C=C/C=C/C1CC(O)C(O)C(=O)C1CO (stereo not drawn)
2. COC(=O)NC(Cc1ccccc1)NC(=O)OC(C)(C)C (stereo not drawn)
3. C=C(C)C1CCC2=CC(CC3(C)OC3C3=CC(C(=O)OC)=C(C1)O3)OC2=O (stereo not drawn)
4. COc1ccc2cc(C(=O)NCCc3ccccc3)ccc2c1OC
5. C=CCNS(=O)(=O)c1ncnc2[nH]cnc12
6. C=C(C)C(=O)O[C@H]1CC2(CO)O[C@@H]2CC/C(COC(C)=O)=C/C2OC(=O)C(=C)[C@@H]21 (stereo partly drawn)
7. CCOP(=O)(OCC)C(NC(=O)C(C(F)(F)F)C(F)(F)F)c1ccccc1 (stereo not drawn)

Completion:
> 100 µM (inactive)
> 100 µM (inactive)
> 100 µM (inactive)
> 100 µM (inactive)
67.9 µM (inactive)
23.9 µM (inactive)
> 100 µM (inactive)

State recorded GI50 for all listed compounds.
1. COc1nc(NC2OC(COC(C)=O)C(OC(C)=O)C(OC(C)=O)C2OC(C)=O)c(/N=C/C=N/c2c(NC3OC(COC(C)=O)C(OC(C)=O)C(OC(C)=O)C3OC(C)=O)nc(OC)n(C)c2=O)c(=O)n1C (stereo not drawn)
2. CC(=O)N1N=C(c2ccccc2Nc2ccccc2C2=NN(C(C)=O)C(c3ccccc3)O2)OC1c1ccccc1 (stereo not drawn)
3. NC(=O)C(=O)C1C(=O)N(c2ccccc2)N=C1N (stereo not drawn)

Completion:
> 100 µM (inactive)
81.8 µM (inactive)
> 100 µM (inactive)

State recorded GI50 for all listed compounds.
1. O=C(Nc1ccccc1)Oc1ccc(C(=S)Nc2ccc(Br)cc2)cc1
2. NC(N)=NN/C(=C1/N=c2ccc([N+](=O)[O-])cc2=NC1=O)C(O)c1ccco1 (stereo not drawn)
3. COc1cc(C(C)c2cc3c(cc2OCCNC(=O)COc2cc4c(cc2C(C)c2cc(OC)c(OC)c(OC)c2)OCO4)OCO3)cc(OC)c1OC (stereo not drawn)
4. O=C1CCCCC1CN1CCCCC1 (stereo not drawn)
5. O=C1N/C(=N/N=C\C(O)C(O)C(O)CO)N/C1=C/c1ccccc1 (stereo not drawn)

Completion:
11.9 µM (inactive)
> 100 µM (inactive)
42.3 µM (inactive)
> 100 µM (inactive)
> 100 µM (inactive)

State recorded GI50 for all listed compounds.
1. C=CCn1c(-c2ccc([N+](=O)[O-])cc2)csc1=N
2. Cc1cc(S(=O)(=O)n2ccnc2O)c(SCCCN(C)C)cc1Cl
3. COc1cc2oc(=O)cc(C)c2cc1OC

Completion:
["20.3 µM (inactive)", "> 100 µM (inactive)", "> 100 µM (inactive)"]
